# credit: ChEMBL document CHEMBL3988442

Could you please report measured Percent Effect for the items listed next?
System: Wolbachia pipientis
Test: Anti-Wolbachia Cell-Based Screen
Assay type: functional
Parameters: scale not given: in the data most compounds retested in dose-response had high values
Conditions: 5 µM
In all, about 48,000 compounds went through this assay and about 13,000 (27%) showed an effect of 50% or more. The list shows a part of the results.
Give bare numbers, in %.

// solved cases for Percent Effect follow
CCN1CCC2(CC1)CC(NC(=O)c1c[nH]cn1)c1ccccc1O2 (stereo not given)	-7.488
CN1CCC2(CC1)CC(NC(=O)c1csnn1)c1ccccc1O2.O=C(O)C(F)(F)F (stereo not given)	-8.669
COc1ccccc1C(=O)N1CCN(C(=O)CCCc2cn[nH]c2)CC1	9.231
NC(=O)CCN(C(=O)c1cccc2c1OCO2)c1ccccc1	16.64
CC(C)(C)OC(=O)N1CCC(C(=O)NC2CCS(=O)(=O)C2)CC1 (stereo not given)	6.733

Provide reported Percent Effect for each item, in the same order as listed.
1. CC(=O)N1CCC2(CC1)CC(NS(C)(=O)=O)c1ccccc1O2 (stereo not given)
2. Cc1ccc(NC2COC3(CCN(CC(C)C)CC3)C2)nn1.O=C(O)C(F)(F)F (stereo not given)
3. CN(C)C(=O)CC1CC2(CCN(C(=O)N(C)C)CC2)Oc2ccccc21 (stereo not given)
4. CS(=O)(=O)N1CC[C@]2(C[C@@H](Oc3ccccn3)CO2)C1.O=C(O)C(F)(F)F
5. CC(C)CN1CCC2(CC1)CC(NS(C)(=O)=O)c1ccccc1O2.O=C(O)C(F)(F)F (stereo not given)

-- reply
1: 119.8; 2: -1.394; 3: -10.67; 4: -15.23; 5: 99.03

====

Test system: Wolbachia pipientis
Assay: Anti-Wolbachia Cell-Based Screen
Format: functional
Parameters: scale not given: in the data most compounds retested in dose-response had high values
Conditions: 5 µM
Screen size: about 48,000 compounds; about 13,000 (27%) showed an effect of 50% or more. Some of the results follow.
measured attribute: Percent Effect (%)
Give bare numbers, in %.

Cc1ccc(C)c(N2CCN(CC3(O)CCNC3)CC2)c1 (stereo not drawn)	-4.262
CC(=O)N1CCN(CCNS(=O)(=O)c2cccc(F)c2)CC1	146.4
O=C(O)C(F)(F)F.O=C(O)C(F)(F)F.c1coc(CN2CCCn3c(CN4CCOCC4)nnc3C2)c1	102
c1coc(CN2CCn3c(CN4CCOCC4)nnc3C2)c1	0.1546
Cc1cc(C)c2nc(CN3CCOC(CCO)C3)cc(O)c2c1 (stereo not drawn)	-3.808
CCN(CC)Cc1ccc(C(=O)NC2CCc3cc(Br)ccc32)o1 (stereo not drawn)	-2.859
O[C@@H]1CCN(c2ccc3c(Cl)ccnc3c2F)C1	-13.88
O=C1CC(C(=O)N2CCc3sccc3C2)CN1Cc1cccnc1 (stereo not drawn)	-4.394
CCN1CCCCC1C(=O)N1CCC(OC2CCCC2)CC1 (stereo not drawn)	102.5
c1ccc(CCCN2CCOC(Cn3cccn3)C2)cc1 (stereo not drawn)	128.6

Consider the following items and state reported Percent Effect for each.
1. c1ncn(CC2CN(CC3CCCCC3)CCO2)n1 (stereo not drawn)
2. NC(=O)CN(CC(=O)NCc1cccc(Cl)c1)C1CCCC1

-- reply
1. 107.8
2. 3.155

Please report Percent Effect for every entry that follows.
1. Cc1ccc(F)cc1S(=O)(=O)NCc1cccc(CS(C)(=O)=O)c1
2. O=C(O)C(F)(F)F.O=C(O)C(F)(F)F.c1cncc(OCc2nnn3c2CN(Cc2ccsc2)CCC3)c1
3. CC1CCN(CCCNS(=O)(=O)c2cccc(F)c2)CC1.Cl
4. CCCS(=O)(=O)N1CCC(NC(=O)c2ccc(Cl)s2)CC1
5. CC(=O)N1CCN(CCNS(=O)(=O)c2c(F)cccc2F)CC1
6. O=C(O)C(F)(F)F.O=C(O)C(F)(F)F.c1cncc(COCc2nnn3c2CN(Cc2ccsc2)CC3)c1
7. COCc1nccc(C2CCCN(Cc3ccc(C#N)cc3)C2)n1 (stereo not drawn)
8. O=C(NN1CCCc2ccccc21)c1c[nH]c(=O)[nH]1

-- reply
1: -14.38; 2: -20.94; 3: 5.28; 4: 8.314; 5: 115.2; 6: 109.1; 7: -15.32; 8: -8.796

====

Test system: Wolbachia pipientis
Assay: Anti-Wolbachia Cell-Based Screen
Assay type: functional
Set-up: scale not given: in the data most compounds retested in dose-response had high values
Settings: 5 µM
Hit rate of the full screen: of about 48,000 compounds, about 13,000 (27%) showed an effect of 50% or more. The list shows a part of the results.
Consider the following compounds; for each one, report its Percent Effect.
State the value with its unit after it.

CC(C)n1ccnc1C1CCN(C(=O)C2COc3ccccc3O2)CC1 (stereo not given)	-5.747%
Cc1ccccc1C(=O)N1C[C@@H]2COC[C@]2(COCc2cccnc2)C1.O=C(O)C(F)(F)F	-1.339%
Cc1cc(C(=O)N2C[C@@H]3COC[C@]3(COCc3cccnc3)C2)no1	-1.047%
COc1ccccc1CC(=O)NCc1c(C)nc2cc(=O)[nH]n2c1C	-0.07038%

Okay, now this compound:
# Percent Effect (compound: `O=C(COc1ccccc1)N1C[C@@H]2COC[C@]2(COc2cccnc2)C1.O=C(O)C(F)(F)F` ) is 107.1%

====

System: Wolbachia pipientis
Assay: Anti-Wolbachia Cell-Based Screen
Assay type: functional
Parameters: scale not given: in the data most compounds retested in dose-response had high values
Conditions: 5 µM
About 13,000 (27%) of roughly 48,000 compounds showed an effect of 50% or more. The list shows a part of the results.
Kindly state Percent Effect for each of the entries shown.
Give bare numbers, in %.

Solved entries:
Cc1nc(CCN)cc(N2CCCN(C(=O)c3ccco3)CC2)n1	-5.504
Cn1nc(Br)nc1Sc1ccccc1NC(=O)C1CC1	107.9
CC(=O)Nc1ccccc1Sc1nc(Br)nn1C	114.6
Cc1cnc(CN2CCCC(c3cc(C(N)=O)[nH]n3)C2)o1 (configuration not stated)	1.908
COCC(=O)Nc1ccccc1Sc1c(C)n[nH]c1C	-1.881
COc1ccc(C(=O)N2CCN(c3cc(CCN)nc(C)n3)CC2)cc1	-1.227
CC(=O)N1CCN(c2cc(CCN)nc(C3CC3)n2)CC1.Cl	89.11
O=C(Nc1cccc(OCc2ccc(F)cc2)c1)C1COCCO1 (configuration not stated)	-6.014
Cc1n[nH]c(C)c1Sc1ccccc1NC(=O)N1CCN(C)CC1	1.27
COCc1noc(C2(c3ccc(F)cc3)CC2)n1	1.348

Hi team, please reply with Percent Effect for each item in this list.
1. CCC(=O)NCCc1cc(N2CCN(C(C)=O)CC2)nc(C2CC2)n1
2. Cc1nc(CN2CCCC(c3cc(C(N)=O)[nH]n3)C2)oc1C (configuration not stated)

-- reply
[-11.66, 110.2]

====

Hi there, I'd appreciate the recorded Percent Effect for every entry that follows.
Test system: Wolbachia pipientis
Test: Anti-Wolbachia Cell-Based Screen
Assay type: functional
Parameters: scale not given: in the data most compounds retested in dose-response had high values
Settings: 5 µM
The whole screen tested about 48,000 compounds, of which about 13,000 (27%) showed an effect of 50% or more. The list shows a part of the results.
One number for each entry, in %.

Known results for molecules:
Cl.Cn1nc(C2CCN(C(=O)CN3CCCCC3)CC2)c2cccnc21	113.3
O=C(CNC1CCc2ncnn2C1)N(C1=CCCCC1)C1CC1 (configuration not stated)	-15.4
COc1ccc(F)cc1C(=O)N1CC(c2ccncc2)C1	9.533

Fill in Percent Effect for each of the 8 molecules listed.
1. CCc1[nH]c2c(CNC(=O)C3CCN(C)C3)cc(C)cc2c1C (configuration not stated)
2. CC(C)CN1CCc2[nH]cnc2C12CCN(C(=O)c1cncn1C)CC2
3. Cc1cc(C(=O)N(C)CC(F)(F)C(F)(F)F)ccc1-n1cncn1
4. COc1cccc(C(=O)NCc2ccccc2S(=O)(=O)N(C)CCO)c1
5. COc1ccc(F)cc1C(=O)N1C[C@H]2C[C@H](OC)C[C@H]2C1
6. COc1ccc(F)cc1C(=O)N1CCCC(n2nc(C)nc2C)C1 (configuration not stated)
7. O=C(O)C(F)(F)F.O=C([C@H]1CN(Cc2ccoc2)C[C@H]2OCC[C@@H]12)N1CCCCO1
8. Cc1ccc(CC(=O)NC(C)C(=O)N2CCS(=O)(=O)CC2)s1 (configuration not stated)

-- reply
1: -4.959; 2: -0.9954; 3: -4.765; 4: 1.796; 5: 117.3; 6: -10.5; 7: -7.154; 8: 0.993

Take each entry in turn and give its Percent Effect.
1. NC(=O)N1CCc2cc(C(=O)O)c(-c3ccsc3)nc2CC1.O=C(O)C(F)(F)F
2. C[C@H]1C[C@H]2CN(C(=O)c3cccc4c3OCCO4)CC[C@H]2O1

-- reply
[-21.16, 2.231]

Hi, could you look up Percent Effect for each item in my list?
1. CN(Cc1nccn1C)c1ccc(-c2nccn2C)nn1
2. CC(C)Oc1ccc(C(=O)N2CCCSCC2CN(C)C)cc1 (configuration not stated)
3. Cc1csc(N2CCN(C(=O)Cc3ccc(C)s3)CC2)n1
4. COc1ccccc1OC1CCN(C(=O)CCCN2CCOCC2)CC1

-- reply
[-5.677, 112.1, 9.508, 10.26]

Hi! Can you tell me Percent Effect for each of these molecules?
1. Cc1ccc(C2CSCCN2C(=O)c2ccc(C(N)=O)cc2)o1 (configuration not stated)
2. Cn1cc(CNc2ccc(F)c(N3CCCS3(=O)=O)c2)cn1
3. Cc1noc(C)c1CN(C)CCc1nc(-c2cccc(Cl)c2)no1
4. CO[C@H]1C[C@@H]2CN(C(=O)c3cccc4c3OCCO4)C[C@@H]2C1
5. O=C(CN1CCCCC1)NCc1cccnc1-n1cnc2ccccc21

-- reply
[-7.519, -4.512, 0.3419, 78.24, -3.687]
